- target_of_assay: human LPA1 (Homo sapiens)
- Construct: the full-length cDNA for human LPA1 was obtained by PCR of the reverse transcription reaction; expressed in transfected cells
- method_summary: LPA1 calcium flux assay
- Format: cell-based
- conditions_used: CHO cells expressing human LPA1, stimulated with 10 nM LPA; read-out: HLPA1 Ca Flux IC50
measured_quantity: IC50

Would you please look over these solved cases?
Task item: Requested read-out: IC50. Entry: CCN(Cc1c(C)noc1-c1ccc(-c2ccc(C3(C(=O)O)CC3)cc2)cc1)C[C@H](C)c1ccccc1 [Compound 1-104]
Reply: < 300 nM

Task item: Need IC50 of Cc1noc(-c2ccc(-c3ccc(C4(C(=O)O)CC4)cc3)cc2)c1C(CCCc1ccccc1)NS(C)(=O)=O (stereo not shown) [Compound 1-257] , thanks.
Reply: 1000 to 50000 nM

Task item: Bench note: what IC50 did Cc1noc(-c2ccc(-c3ccc(C4(C(=O)O)CC4)cc3)cc2)c1CCOCc1ccccn1 [Compound 1-75] show?
Reply: 1000 to 50000 nM

Task item: Suppose we examine the compound Cc1noc(-c2ccc(-c3cccc(CC4(C(=O)O)CC4)c3)cc2)c1C(O)CCCc1ccccc1 (stereo not shown) [Compound 1-251] ; what IC50 value has been reported?
Reply: 300 to 1000 nM

Task item: Which measured IC50 value corresponds to CC(=O)N(CCc1ccccc1)Cc1c(C)noc1-c1ccc(-c2ccc(C3(C(=O)O)CC3)cc2)cc1 [Compound 1-30] ?
Reply: < 300 nM

Task item: For CCOC(CCCc1ccccc1)c1c(C)noc1-c1ccc(-c2ccc(C3(C(=O)O)CC3)cc2)cc1 (stereo not shown) [Compound 1-147] , what is its reported IC50?
Reply: 300 to 1000 nM

***
Task item: Suppose we examine the compound C=CCCC(C)Nc1c(C)noc1-c1ccc(-c2ccccc2CC(=O)O)cc1 (stereo not shown) [Compound 1-228] ; what IC50 value has been reported?
Reply: 1000 to 50000 nM

Task item: Looking for the measured IC50 of Cc1noc(-c2ccc(-c3ccccc3C3(C(=O)O)CC3)cc2)c1/C=C\CCc1ccccc1 [Compound 1-62] , can you help?
Reply: 1000 to 50000 nM

Task item: What value of measured IC50 is listed for Cc1ccc(S(=O)(=O)NC(=O)Nc2c(C)noc2-c2ccc(-c3ccc(C4(C(=O)NS(=O)(=O)c5ccc(C)cc5)CC4)cc3)cc2)cc1 [Compound 2-5] ?
Reply: > 50000 nM

Task item: Fill in: IC50 of Cc1noc(-c2ccc(-c3ccc(C4(C(=O)O)CC4)cc3)cc2)c1C(O)C(F)(F)CCc1ccccc1 (single isomer, unassigned) [Compound 1-255] is ___
Reply: < 300 nM

====

- target_of_assay: human LPA1 (Homo sapiens, UniProt Q92633)
- Construct: the full-length cDNA for human LPA1 was obtained by PCR of the reverse transcription reaction
- Sequence (Q92633 whole entry): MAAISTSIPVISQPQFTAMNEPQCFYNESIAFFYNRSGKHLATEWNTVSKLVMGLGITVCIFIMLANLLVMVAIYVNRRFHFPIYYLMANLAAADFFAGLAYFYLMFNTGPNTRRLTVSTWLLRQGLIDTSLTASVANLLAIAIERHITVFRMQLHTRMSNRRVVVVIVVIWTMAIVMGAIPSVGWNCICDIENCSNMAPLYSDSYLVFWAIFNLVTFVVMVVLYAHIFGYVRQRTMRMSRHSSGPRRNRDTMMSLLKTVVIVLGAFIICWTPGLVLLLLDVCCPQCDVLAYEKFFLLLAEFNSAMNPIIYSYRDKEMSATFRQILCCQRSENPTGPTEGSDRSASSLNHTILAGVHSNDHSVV
- method_summary: LPA1 calcium flux assay
- conditions_used: CHO cells expressing human LPA1, stimulated with 10 nM LPA; read-out: HLPA1 Ca Flux IC50
measured_quantity: IC50

Example compounds with recorded IC50:
Task item: Sample Cc1noc(-c2ccc(-c3ccc(C4(C(=O)O)CC4)cc3)cc2)c1CCC(=O)NC1CC1 — what was its IC50?
Reply: 1 to 50 µM

Task item: Quick one: IC50 of Cc1noc(-c2ccc(-c3ccc([C@@H]4C[C@H]4C(=O)O)cc3)cc2)c1/C=C/CCc1ccccc1 (relative stereo) ?
Reply: 1 to 50 µM

Task item: # lookup: IC50 of Cc1noc(-c2ccc(-c3ccccc3CC(=O)O)cc2)c1NC(C)CCc1ccc2c(c1)OCO2 (stereo not shown)
Reply: > 50 µM

Others:
Task item: Query (compound): Cc1noc(-c2ccc(-c3ccc(C4(C(=O)O)CC4)cc3)cc2)c1Cn1cc(Br)cn1 ; field requested: IC50
Reply: 1 to 50 µM
